# Assay name: cytosolic pH regulators acting via V-ATPase – S. cerevisiae, pHLuorin, HTS validation (AID 504600);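 note: plate controls were DMSO for no effect and reference compound for full effect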
# Condition info: V-ATPase proton transport, at 10 µM
Calls of active or inactive are those of the source. Cut-off read from the data, not from the text of the source: active = response above about 15%; inactive = the rest.
Use one of these outcomes when replying: true (1) for active, false (0) for inactive

// below: answered compounds
NC(=O)c1ccccc1O; false (0)
Cc1ccc(C)c(OCCCC(C)(C)C(=O)O)c1; false (0)
CCOc1ccc(NC2OC(C)C(O)C(O)C2O)c([N+](=O)[O-])c1 (configuration not stated); false (0)
C[C@]12CCC(=O)C=C1CC[C@@H]1[C@@H]2[C@@H](O)C[C@@]2(C)[C@H]1CC[C@]2(O)C(=O)CO; false (0)
Clc1cc(-c2ccc(/C=N/n3cnnc3)o2)ccc1Br; false (0)
COc1cc(COc2ccc3c(C)c(Cc4ccccc4)c(=O)oc3c2)cc(OC)c1OC; false (0)
O=C(Oc1ccc2c3c(c(=O)oc2c1)CCCC3)c1ccco1; false (0)
CCC(C(=O)OCCN(CC)CC)c1ccccc1 (configuration not stated); false (0)

Challenge: Hi, do you know how `CSCC[C@H](NC(=O)Nc1ccc(C)cc1C)C(=O)O` came out in this test?
Response given: false (0)

Challenge: Hi, do you know how `COc1cc2c(cc1OC)CN(Cc1ccc(C)s1)CC2` came out in this test?
Response given: false (0)

###

# Tested system: Guanine nucleotide-binding protein G(o) subunit alpha (Homo sapiens) + Regulator of G-protein signaling 19 (Homo sapiens) (UniProt P09471+P49795)
# Sequence (P09471 whole entry, looked up): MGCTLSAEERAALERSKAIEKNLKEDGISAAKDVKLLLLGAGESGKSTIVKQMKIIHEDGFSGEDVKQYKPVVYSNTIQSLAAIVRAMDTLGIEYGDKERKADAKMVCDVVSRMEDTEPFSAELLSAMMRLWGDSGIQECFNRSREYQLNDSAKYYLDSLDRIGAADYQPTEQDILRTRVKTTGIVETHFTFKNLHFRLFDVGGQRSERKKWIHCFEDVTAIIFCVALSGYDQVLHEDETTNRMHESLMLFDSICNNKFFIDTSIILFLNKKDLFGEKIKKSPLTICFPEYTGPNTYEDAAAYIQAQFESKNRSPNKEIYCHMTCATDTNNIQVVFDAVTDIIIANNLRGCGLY
# Sequence (P49795 whole entry, looked up): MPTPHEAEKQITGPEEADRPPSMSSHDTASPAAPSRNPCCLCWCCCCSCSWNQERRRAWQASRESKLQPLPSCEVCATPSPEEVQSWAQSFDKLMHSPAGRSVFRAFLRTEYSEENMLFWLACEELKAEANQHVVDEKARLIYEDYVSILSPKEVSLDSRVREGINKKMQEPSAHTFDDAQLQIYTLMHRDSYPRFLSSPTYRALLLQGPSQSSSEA
# Assay name: RGS19 interaction with Gαo, hit retest – biochemical, single point, multiplexed bead flow cytometry, confirmation (AID 1841);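 note: 100% = no compound control and 0% = blank background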
# Condition info: bead-based flow cytometry RGS19-Galphao binding; at 10 µM; actives lie on both sides
The other results are listed elsewhere or left out.
Test readout: response (percent of control binding) (%)
Your answer is read as %, so omit the unit and give the number.

CC1(C)C=C2[C@H]3CC[C@@H]4[C@@]5(C)CCC(=O)C(C)(C)[C@@H]5CC[C@@]4(C)[C@]3(C)CC[C@@]2(C(=O)O)CC1; 68.7
O=C(Nc1ccccc1)OCc1cc(-c2ccc(Cl)cc2)on1; 55.4

Moving on to another compound below.
Challenge: For `C=CCNc1nc(N)c(C(=C(C#N)C#N)c2ccccc2)s1` , what is its reported response (percent of control binding)?
Response given: 113

###

Listed here are compounds together with their documented fluorescence, percent of control (lower = inhibition).
# Tested system: Cell division control protein 42 homolog (Homo sapiens)
# Assay name: inhibition of fluorescent GTP binding to wildtype Cdc42 – biochemical, multiplex bead flow cytometry, Bodipy-FL-GTP, dose response (AID 1334)
# Condition info: bead-based flow cytometry, Bodipy-FL-GTP binding to GST-Cdc42; at 100 µM (top of the series) unless noted
Measured potencies and affinities stand elsewhere.
Your answer is read as %, so omit the unit and give the number.

As a guide, the following entries are already answered.
O=C(C[n+]1cccc2ccccc21)c1ccc(NC(=O)c2ccccc2)cc1; 75.8
O=C(Nc1nc(-c2cccs2)cs1)c1cc2ccccc2oc1=O; 51.8
Nc1c(S(=O)(=O)c2ccccc2)c2nc3ccccc3nc2n1C1CC1; 33.3
Cc1ccc(C)c(CSc2ncccc2C(=O)O)c1; 64.5

Challenge: For `CO/N=C/NC(=O)NOCc1ncc(C(F)(F)F)cc1Cl` , what is its reported fluorescence, percent of control (lower = inhibition)?
Response given: 38.1

Challenge: For `O=C(O)COc1ccccc1/C=N/NC(=O)c1cccc(S(=O)(=O)Nc2cccc(Cl)c2)c1` , what is its reported fluorescence, percent of control (lower = inhibition)?
Response given: 36.3

###

Listed here are compounds together with their documented GFP response vs DMSO.
# Assay name: TOR pathway LAP4-GFP level changes – S. cerevisiae, multiplex flow cytometry, primary screen (AID 1873)
# Condition info: S. cerevisiae LAP4-GFP expression, 3 h, at 10 µM, stronger effect = higher value
Results filed as inconclusive are left out.
Your answer is read as %, so omit the unit and give the number.

As a guide, the following entries are already answered.
Cn1c(SCC(=O)c2ccccc2)nnc1-c1ccncc1; 112
COC(=O)C1=NN(C(=O)c2cccc(Br)c2)C(O)(c2ccc(Cl)cc2)C1 (stereo unspecified); 114
CCCCOc1ccc(C(=O)CCN2CCCCC2)cc1; 126
Cc1cccc(C)c1NC(=O)C1CCCCN1C (stereo unspecified); 90.1
CC12CC(c3ccccc3O1)C(C(=O)N1CCOCC1)C(=O)N2 (stereo unspecified); 85.2

Moving on to another compound below.
Challenge: For `O=C(CCC(=O)NCCO)NCCO` , what is its reported GFP response vs DMSO?
Response given: 108

###

# Assay name: TOR pathway LAP4-GFP level changes – S. cerevisiae, multiplex flow cytometry, primary screen (AID 1873)
# Condition info: S. cerevisiae LAP4-GFP expression, 3 h, at 10 µM, stronger effect = higher value
Inconclusive results are not listed.
Test readout: GFP response vs DMSO (%)
Your answer is read as %, so omit the unit and give the number.

Cc1ccc(S(=O)(=O)n2ccnc2)cc1C; 108
C#CCN1C(=O)C(O)(c2c(C)[nH]c3ccccc23)c2ccccc21 (stereo unspecified); 103
O=C(O)c1ccc(C(=O)C(=O)c2ccccc2)cc1; 101
COC(=O)c1ccc2c(c1)C(=O)/C(=C/c1ccc(O)cc1)O2; 111

Challenge: For COc1ccccc1NC(=O)C12CCC(C)(C(=O)C1)C2(C)C (stereo unspecified) , what is its reported GFP response vs DMSO?
Response given: 124

Challenge: For `Nc1[nH]c(=O)ncc1F` , what is its reported GFP response vs DMSO?
Response given: 113

###

Listed here are compounds together with their documented superoxide response (% of plate).
# Assay name: calorie-restriction mimetic ROS inhibitors, yeast – validation compound set, pilot screen (AID 2706);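 note: yeast exposed to compound for one week at 30 degrees C before staining; 100% = mean of all compound wells on the same plate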
# Condition info: S. cerevisiae aging, superoxide DHE fluorescence; at 10 µM; stronger effect = lower value
Your answer is read as %, so omit the unit and give the number.

As a guide, the following entries are already answered.
C=CCn1c(N2CCCCCC2)nc2c1c(=O)n(C)c(=O)n2C; 112
COc1cc(CO)ccc1OCc1nnnn1-c1ccc(C)cc1; 107
COC(=O)C1=NN(C(=O)c2cccc(Br)c2)C(O)(c2ccc(Cl)cc2)C1 (configuration not stated); 93.4
COc1ccc(C2c3c(n[nH]c3C)CC(C)(O)C2C(C)=O)cc1OC (configuration not stated); 106

Challenge: For `COc1cc2c(cc1NCc1ccc3c(c1)OCO3)oc1ccccc12` , what is its reported superoxide response (% of plate)?
Response given: 99.1

Challenge: For `CC(/C=C1\SC(=O)N(CCCC(=O)O)C1=O)=C\c1ccccc1` , what is its reported superoxide response (% of plate)?
Response given: 112

Challenge: For `CC(C)(Oc1ccc(CCNC(=O)c2ccc(Cl)cc2)cc1)C(=O)O` , what is its reported superoxide response (% of plate)?
Response given: 110

Challenge: For `CCc1nc(N)nc(N)c1-c1ccc(Cl)cc1` , what is its reported superoxide response (% of plate)?
Response given: 87.5

Challenge: For O=C(NC(Nc1ccccn1)C(Cl)(Cl)Cl)c1ccccc1 (configuration not stated) , what is its reported superoxide response (% of plate)?
Response given: 91.6

Challenge: For COc1cc2c3c(c1)C(C)CC(C)(C)N3C(=O)C2=O (configuration not stated) , what is its reported superoxide response (% of plate)?
Response given: 99

Challenge: For `O=c1c2[nH]c3ccccc3c2ncn1CCC1=CCCCC1` , what is its reported superoxide response (% of plate)?
Response given: 95.4

Challenge: For `C=CCOc1ccc(C(=O)CC)cc1OC` , what is its reported superoxide response (% of plate)?
Response given: 103

###

# Tested system: ATP-binding cassette sub-family B member 6 (Homo sapiens) (UniProt Q9NP58)
# Sequence (Q9NP58 whole entry, looked up): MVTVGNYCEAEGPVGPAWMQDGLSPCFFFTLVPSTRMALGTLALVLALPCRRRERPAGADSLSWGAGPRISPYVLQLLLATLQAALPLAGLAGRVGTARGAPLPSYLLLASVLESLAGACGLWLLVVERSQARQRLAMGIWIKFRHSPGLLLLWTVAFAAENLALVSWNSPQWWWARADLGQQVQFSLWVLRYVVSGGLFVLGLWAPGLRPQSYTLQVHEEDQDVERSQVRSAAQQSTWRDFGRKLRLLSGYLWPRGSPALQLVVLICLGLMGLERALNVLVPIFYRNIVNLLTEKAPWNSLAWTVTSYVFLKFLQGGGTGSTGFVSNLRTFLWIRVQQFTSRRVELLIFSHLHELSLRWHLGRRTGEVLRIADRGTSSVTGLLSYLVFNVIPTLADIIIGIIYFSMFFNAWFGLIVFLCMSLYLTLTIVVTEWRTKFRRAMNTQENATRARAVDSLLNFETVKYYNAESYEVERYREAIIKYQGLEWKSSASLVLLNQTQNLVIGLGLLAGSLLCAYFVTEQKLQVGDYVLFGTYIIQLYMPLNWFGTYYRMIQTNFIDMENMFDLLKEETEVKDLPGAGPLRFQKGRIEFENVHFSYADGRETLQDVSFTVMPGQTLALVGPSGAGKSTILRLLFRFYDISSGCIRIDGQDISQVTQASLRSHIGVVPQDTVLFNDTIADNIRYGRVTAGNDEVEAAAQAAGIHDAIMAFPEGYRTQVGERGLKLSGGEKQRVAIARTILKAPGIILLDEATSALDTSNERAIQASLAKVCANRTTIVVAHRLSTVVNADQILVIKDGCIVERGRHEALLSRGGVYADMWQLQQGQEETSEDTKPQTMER
# Assay name: blockers of ABCB6-driven porphyrin uptake – K562-ABCB6 cells, flow cytometry, validation set, pilot screen (AID 588550);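 note: 0% = DMSO wells and 100% = benzethonium chloride 70 µM positive control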
# Condition info: K562-ABCB6 porphyrin accumulation, 1 h, at 10 µM, stronger effect = higher value
Listed here are molecules together with their documented inhibition.
Your answer is read as %, so omit the unit and give the number.

As a guide, the following entries are already answered.
CCC[C@@H]1C[C@@H](C(=O)N[C@H]([C@@H](C)O)[C@H]2O[C@H](SC)[C@H](O)[C@@H](O)C2O)N(C)C1 (stereo not given in full); 10
CCOc1ccc(C(=O)N2CCCC2C(=O)O)cc1 (stereo not given); 6
CCCCOn1c(C)c(C(C)=O)c2c3no[n+]([O-])c3ccc21; 7

Challenge: For `COc1cc2c(cc1OC)-c1cc(NC3CCCCCC3)nc(=O)n1CC2` , what is its reported inhibition?
Response given: -6

Challenge: For CC12CCC(C(=O)NCc3ccccn3)(OC1=O)C2(C)C (stereo not given) , what is its reported inhibition?
Response given: 33
